Target: T1, IL-23 receptor on the surface of HEK-Blue IL-23 cells (UniProt Q5VWK5 24-629, limits assumed)
T1 sequence (looked up): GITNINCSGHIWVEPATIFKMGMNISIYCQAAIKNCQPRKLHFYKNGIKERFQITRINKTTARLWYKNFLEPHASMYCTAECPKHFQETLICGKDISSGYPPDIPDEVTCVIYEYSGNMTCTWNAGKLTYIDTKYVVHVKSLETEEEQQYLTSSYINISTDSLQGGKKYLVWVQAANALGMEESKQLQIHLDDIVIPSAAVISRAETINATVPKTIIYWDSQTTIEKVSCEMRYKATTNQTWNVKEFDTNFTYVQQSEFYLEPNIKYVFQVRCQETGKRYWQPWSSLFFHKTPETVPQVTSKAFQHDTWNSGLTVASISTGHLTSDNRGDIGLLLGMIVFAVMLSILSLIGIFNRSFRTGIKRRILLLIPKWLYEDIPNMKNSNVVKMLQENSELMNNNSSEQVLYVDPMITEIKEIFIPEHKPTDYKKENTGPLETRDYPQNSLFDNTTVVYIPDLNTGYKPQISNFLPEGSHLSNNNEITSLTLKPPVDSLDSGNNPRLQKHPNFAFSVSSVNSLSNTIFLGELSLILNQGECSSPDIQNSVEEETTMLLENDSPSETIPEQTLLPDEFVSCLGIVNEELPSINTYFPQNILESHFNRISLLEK
Assay: cell-based or functional assay
Positions of bridges follow the written chain, without caps; N, C: chain ends. Non-standard residues stand in square brackets, D forms with d. 2Nal = N[C@@H](Cc1ccc2ccccc2c1)C(=O)O; AEF = NCCOc1ccc(C[C@H](N)C(=O)O)cc1; Nmapt = not defined here; Thp = NC1(C(=O)O)CCOCC1
parameterMeasured: pSTAT3 (nM)
The response must be a number in nM with no trailing unit.

// query May I ask what pSTAT3 (nM) has been recorded for [Nmapt]CKWQC[AEF][2Nal][Thp]EAG-NH2 (lactam N-10; disulfide 2-6; not fully specified (residue 3); printed as Nmapt(§1)-C(§3)(@2)-K[aAc](@3)-W-Q-C(@2)-Yae-Nal-Thp-E(§1)-A-G-NH2; reading uncertain; also: K3 acetylated (K[aAc]), acetyl site not given here, ε-NH2 takes the Cys2 bond) [Compound of SEQ ID NO: 17] ?
// result 62
